B1: EPB41L3 (parent)
chain: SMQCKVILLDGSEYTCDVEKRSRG

- Variants of: B1
- experiment-summary: protein stability index of a GFP-peptide fusion (GPS, HEK-293T) (PSI 1-6); higher = more stable;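 further: lentivirally expressed fusions sorted by FACS into six bins by GFP to DsRed ratio, PSI derived from sequencing read proportions per bin multiplied by bin number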
- test-context: c terminus: a fixed tail appended
Rule: protein stability index of 2 or more gives 1 (yes); anything lower gives 0 (no).

Input: Threshold query (protein stability index >= 2) on SMQCEVILLDGSEYTCDVEKRSRG
Output: 1 (yes)

Input: Threshold query (protein stability index >= 2) on SMQCKVILLDGQEYTCDVEKRSRG
Output: 1 (yes)

Data provenance is the supplement of paper PMC10567573.
